# Tested on: human orexin-2 (hOX2) receptors (Homo sapiens)
# Construct: expressed in transfected cells
# Sequence (O43614 whole entry): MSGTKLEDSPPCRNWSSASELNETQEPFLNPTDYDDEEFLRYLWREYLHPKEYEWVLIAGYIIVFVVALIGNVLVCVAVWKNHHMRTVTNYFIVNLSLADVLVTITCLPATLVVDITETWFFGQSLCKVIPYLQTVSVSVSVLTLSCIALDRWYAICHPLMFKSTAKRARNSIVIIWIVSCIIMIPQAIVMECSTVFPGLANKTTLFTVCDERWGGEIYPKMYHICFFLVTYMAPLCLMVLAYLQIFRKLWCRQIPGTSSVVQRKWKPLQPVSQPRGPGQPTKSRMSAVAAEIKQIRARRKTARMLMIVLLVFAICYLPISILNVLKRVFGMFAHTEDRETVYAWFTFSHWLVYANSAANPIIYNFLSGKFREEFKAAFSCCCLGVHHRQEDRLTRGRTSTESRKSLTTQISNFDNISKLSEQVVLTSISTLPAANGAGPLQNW
# Test description: Intracellular Ca2+ mobilization assay (FLIPR), orexin-A as agonist
# Type: cell-based
# Condition label: CHO(dHFr-) cells stably expressing hOX2; antagonist applied 25 min before EC80 of orexin-A; Kb=IC50/(1+[A]/EC50); read-out: Kb (μM) OX2R (human)
Assay readout: Kb (µM)

[[record]]
compound = "COc1cccc(S(=O)(=O)N(CC(=O)N2CCCC2c2ccc(F)cc2)c2ccc(Cl)cc2)c1 (stereo not shown)"
assay_readout = "Kb"
experimental_value = 0.0006

[[record]]
compound = "O=C(CN(c1ccc(Cl)cc1)S(=O)(=O)c1ccccc1F)N1CCCC1c1ccc(F)cc1 (stereo not shown)"
assay_readout = "Kb"
experimental_value = 0.0009

[[record]]
compound = "Cc1ccc(S(=O)(=O)N(CC(=O)N2CCCC2c2ccccc2)c2ccc(Cl)cc2)cc1 (stereo not shown)"
assay_readout = "Kb"
experimental_value = 0.0019

[[record]]
compound = "COc1ccc(S(=O)(=O)N(CC(=O)N2CCCC2c2ccccc2)c2ccccc2OC)cc1 (stereo not shown)"
assay_readout = "Kb"
experimental_value = 0.0032

[[record]]
compound = "COc1ccc(S(=O)(=O)N(CC(=O)N2CCCC2c2ccc(F)cc2)c2ccc(F)cc2)cc1 (stereo not shown)"
assay_readout = "Kb"
experimental_value = 0.0079

[[record]]
compound = "O=C(CN(c1ccc(Cl)cc1)S(=O)(=O)c1ccccc1Cl)N1CCCC1c1ccc(F)cc1 (stereo not shown)"
assay_readout = "Kb"
experimental_value = 0.0007

[[record]]
compound = "COc1ccc(S(=O)(=O)N(CC(=O)N2CCCC2c2ccc(F)cc2)c2ccc(Cl)cc2)cc1 (stereo not shown)"
assay_readout = "Kb"
experimental_value = 0.0017

[[record]]
compound = "COc1ccc(S(=O)(=O)N(CC(=O)N2CCCC2c2ccc(F)cc2)c2ccccc2OC)cc1 (stereo not shown)"
assay_readout = "Kb"
experimental_value = 0.005

[[record]]
compound = "O=C(CN(c1ccc(Cl)cc1)S(=O)(=O)c1ccccc1F)N1CCCC1c1ccccc1 (stereo not shown)"
assay_readout = "Kb"
experimental_value = 0.0025

[[record]]
compound = "COc1ccc(S(=O)(=O)N(CC(=O)N2CCCC2c2ccccc2)c2cccc(C(F)(F)F)c2)cc1 (stereo not shown)"
assay_readout = "Kb"
experimental_value = 0.0077

[[record]]
compound = "COc1ccccc1S(=O)(=O)N(CC(=O)N1CCCC1c1ccc(F)cc1)c1ccc(Cl)cc1 (stereo not shown)"
assay_readout = "Kb"
experimental_value = 0.0003

[[record]]
compound = "O=C(CN(c1ccc(Cl)cc1)S(=O)(=O)c1ccc(F)cc1)N1CCCC1c1ccc(F)cc1 (stereo not shown)"
assay_readout = "Kb"
experimental_value = 0.0005

[[record]]
compound = "COc1ccc(S(=O)(=O)N(CC(=O)N2CCCC2c2ccc(F)cc2)c2cccc(F)c2)cc1 (stereo not shown)"
assay_readout = "Kb"
experimental_value = 0.0064

[[record]]
compound = "Cc1ccc(S(=O)(=O)N(CC(=O)N2CCCC2c2ccc(F)cc2)c2ccc(Cl)cc2)cc1 (stereo not shown)"
assay_readout = "Kb"
experimental_value = 0.0013

[[record]]
compound = "COc1ccc(S(=O)(=O)N(CC(=O)N2CCCC2c2ccccc2)c2cccc(F)c2)cc1 (stereo not shown)"
assay_readout = "Kb"
experimental_value = 0.0077

[[record]]
compound = "COc1cccc(S(=O)(=O)N(CC(=O)N2CCCC2c2ccccc2)c2ccc(Cl)cc2)c1 (stereo not shown)"
assay_readout = "Kb"
experimental_value = 0.0017

[[record]]
compound = "COc1ccc(S(=O)(=O)N(CC(=O)N2CCCC2c2ccccc2)c2ccc(Cl)cc2)cc1 (stereo not shown) [Example 2]"
assay_readout = "Kb"
experimental_value = 0.0049

[[record]]
compound = "COc1ccc(S(=O)(=O)N(CC(=O)N2CCCC2c2ccccc2)c2ccc(F)cc2)cc1 (stereo not shown)"
assay_readout = "Kb"
experimental_value = 0.0096

[[record]]
compound = "O=C(CN(c1ccc(Cl)cc1)S(=O)(=O)c1cccc(Cl)c1)N1CCCC1c1ccc(F)cc1 (stereo not shown)"
assay_readout = "Kb"
experimental_value = 0.0014

[[record]]
compound = "O=C(CN(c1ccc(Cl)cc1)S(=O)(=O)c1ccc(Cl)cc1)N1CCCC1c1ccc(F)cc1 (stereo not shown)"
assay_readout = "Kb"
experimental_value = 0.002

[[record]]
compound = "COc1ccc(N(CC(=O)N2CCCC2c2ccc(F)cc2)S(=O)(=O)c2ccc(OC)cc2)cc1 (stereo not shown)"
assay_readout = "Kb"
experimental_value = 0.0026

[[record]]
compound = "COc1ccc(N(CC(=O)N2CCCC2c2ccccc2)S(=O)(=O)c2ccc(OC)cc2)cc1 (stereo not shown)"
assay_readout = "Kb"
experimental_value = 0.003

[[record]]
compound = "O=C(CN(c1ccc(Cl)cc1)S(=O)(=O)c1cccc(F)c1)N1CCCC1c1ccc(F)cc1 (stereo not shown)"
assay_readout = "Kb"
experimental_value = 0.0018

[[record]]
compound = "Cc1cccc(S(=O)(=O)N(CC(=O)N2CCCC2c2ccc(F)cc2)c2ccc(Cl)cc2)c1 (stereo not shown)"
assay_readout = "Kb"
experimental_value = 0.0005

[[record]]
compound = "Cc1ccccc1S(=O)(=O)N(CC(=O)N1CCCC1c1ccccc1)c1ccc(Cl)cc1 (stereo not shown)"
assay_readout = "Kb"
experimental_value = 0.0005

[[record]]
compound = "O=C(CN(c1ccc(Cl)cc1)S(=O)(=O)c1ccccc1Cl)N1CCCC1c1ccccc1 (stereo not shown)"
assay_readout = "Kb"
experimental_value = 0.0012

[[record]]
compound = "O=C(CN(c1ccc(Cl)cc1)S(=O)(=O)c1cccc(Cl)c1)N1CCCC1c1ccccc1 (stereo not shown)"
assay_readout = "Kb"
experimental_value = 0.0011

[[record]]
compound = "O=C(CN(c1ccc(Cl)cc1)S(=O)(=O)c1ccc(Cl)cc1)N1CCCC1c1ccccc1 (stereo not shown)"
assay_readout = "Kb"
experimental_value = 0.0022

[[record]]
compound = "COc1ccc(S(=O)(=O)N(CC(=O)N2CCCC2c2ccccc2)c2ccc(Cl)cc2)cc1 (stereo not shown) [Example 6]"
assay_readout = "Kb"
experimental_value = 0.0042

[[record]]
compound = "Cc1cccc(S(=O)(=O)N(CC(=O)N2CCCC2c2ccccc2)c2ccc(Cl)cc2)c1 (stereo not shown)"
assay_readout = "Kb"
experimental_value = 0.0005

[[record]]
compound = "Cc1ccccc1S(=O)(=O)N(CC(=O)N1CCCC1c1ccc(F)cc1)c1ccc(Cl)cc1 (stereo not shown)"
assay_readout = "Kb"
experimental_value = 0.0006


Data provenance: patent US7932269B2
